Cited source: paper PMC10786037

System Tested: CIN85 SH3C domain (Homo sapiens)
Construct: His7 (with TEV protease cleavage site) (N, cleaved yes); made in house; host or cells: Escherichia coli BL21(DE3)
Sequence (Q96B97 267-328 limits assumed): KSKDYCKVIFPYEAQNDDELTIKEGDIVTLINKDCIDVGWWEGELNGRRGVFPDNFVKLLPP
Procedure Summary: NMR titration (chemical shift perturbations) of 15N-labeled SH3C domain with synthetic CIN85-PRM1 peptides
Assay type: binding
Condition Parameters: isolated SH3C domain; NMR titration, CSP of 15N-labeled domain; error of fitted KD from bootstrap resampling; read-out: KD (mM), binary SH3:peptide interaction
Experimental: The recognition of PRM by SH3 domains typically depends on the presence of positively charged residues, such as arginines at the motif’s N- or C-terminus, which often form cation−π interactions with conserved tryptophan residues in the SH3 binding interface.[30] […] Gibbs free energy of this interaction was calculated using the following relation: […] Their difference in free energy can then be calculated as follows: […]

Substance | System Tested | Kd
Ac-FKDKPIKLAPASIE-NH2 [^219FKDKPIKLAPASIE^232] | CIN85 SH3C domain (Homo sapiens) | > 2.45 mM
